test system: L1210; test: In vitro cytotoxicity, tetrazolium microculture assay, L1210; format: cell-based; details: Mus musculus, 48 h; L1210 murine leukaemia, incubated for 2 days; read-out: IC50, the concentration of cytotoxic compound that inhibits the proliferation of the treated cells by 50%
measurement-type: IC50
Could you write the number and then its unit?

// Input: COc1cc2c(c3c1c(=O)c1cc4ccccc4nc1n3C)[C@@H](OC(C)=O)[C@@H](OC(C)=O)C(C)(C)O2 (racemic) . Output its IC50 only.
320 nM

---

Catalogue of compounds with associated melting point
Use °C as the unit, but write only the number.

Guide cases for melting point, answers given:
Cn1c2nc3ccccc3cc2c(=O)c2c(O)cc3c(c21)C=CC(C)(C)O3 | 278
COc1cc2c(c3c1c(=O)c1cc4ccccc4nc1n3C)[C@H]1OC(=O)O[C@H]1C(C)(C)O2 (racemic) | 234
COc1cc2c(c3c1c(=O)c1cc4ccccc4nc1n3C)[C@@H](OC(C)=O)[C@@H](OC(C)=O)C(C)(C)O2 (racemic) | 244
COc1cc2c(c3c1c(=O)c1cc4ccccc4nc1n3C)C=CC(C)(C)O2 | 270

Would you kindly look at the next entry?
// Input: COc1cc2c(c3c1c(=O)c1cc4ccccc4nc1n3C)[C@@H](O)[C@@H](O)C(C)(C)O2 (racemic) . Output its melting point only.
298
